system: Ba/F3 EGFR-Del19/C797S (Homo sapiens, UniProt P00533, C797S, cells depend on it, form not given)
Sequence (P00533 with tags, fused parts or gaps DEL746-750/C797S, form open): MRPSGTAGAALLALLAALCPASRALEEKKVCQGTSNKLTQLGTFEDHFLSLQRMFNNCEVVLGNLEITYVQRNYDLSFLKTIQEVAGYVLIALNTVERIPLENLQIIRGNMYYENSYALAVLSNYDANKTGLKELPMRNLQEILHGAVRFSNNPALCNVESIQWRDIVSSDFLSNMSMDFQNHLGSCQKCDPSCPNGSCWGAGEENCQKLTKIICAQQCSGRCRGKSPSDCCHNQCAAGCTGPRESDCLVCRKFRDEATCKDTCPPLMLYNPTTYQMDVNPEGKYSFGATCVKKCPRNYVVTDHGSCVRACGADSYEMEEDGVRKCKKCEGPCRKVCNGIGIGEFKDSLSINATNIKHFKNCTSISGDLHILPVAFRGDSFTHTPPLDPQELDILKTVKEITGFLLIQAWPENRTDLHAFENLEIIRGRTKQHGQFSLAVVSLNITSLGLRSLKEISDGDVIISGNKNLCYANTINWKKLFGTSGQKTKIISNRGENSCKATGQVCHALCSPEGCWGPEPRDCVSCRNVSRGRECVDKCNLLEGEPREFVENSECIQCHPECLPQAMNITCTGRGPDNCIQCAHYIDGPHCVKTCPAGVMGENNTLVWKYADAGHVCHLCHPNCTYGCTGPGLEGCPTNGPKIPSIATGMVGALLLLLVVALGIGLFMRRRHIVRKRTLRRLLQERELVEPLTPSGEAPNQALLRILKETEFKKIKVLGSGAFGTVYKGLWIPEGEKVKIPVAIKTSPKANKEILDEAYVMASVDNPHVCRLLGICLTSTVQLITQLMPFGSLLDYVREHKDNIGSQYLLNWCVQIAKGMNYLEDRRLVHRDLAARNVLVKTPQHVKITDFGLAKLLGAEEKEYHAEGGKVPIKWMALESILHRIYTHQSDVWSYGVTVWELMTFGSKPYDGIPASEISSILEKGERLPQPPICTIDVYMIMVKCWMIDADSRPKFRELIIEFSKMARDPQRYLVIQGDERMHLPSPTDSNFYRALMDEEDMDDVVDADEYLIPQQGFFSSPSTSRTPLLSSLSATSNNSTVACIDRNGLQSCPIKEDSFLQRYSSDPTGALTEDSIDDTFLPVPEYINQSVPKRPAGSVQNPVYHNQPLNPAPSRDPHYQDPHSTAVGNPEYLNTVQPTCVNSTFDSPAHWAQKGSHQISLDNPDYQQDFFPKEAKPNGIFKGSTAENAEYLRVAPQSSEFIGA
measurement.notes: Ba/F3 viability assay (CellTiter-Glo), DC
Format: cell-based
particulars: anti-proliferation, read-out: BaF3 DC IC50
Attribute: GI50

# annotated cases, reported GI50 shown
[[record]]
compound = "Cc1c(-c2nn3c4cc(ncc24)Nc2ccnc(n2)-c2cnn(C)c2OCCCC3C)cnn1CCC(C)(C)O (stereo not shown) [(92)]"
meas_value = "10 to 100 nM"

[[record]]
compound = "C[C@H]1CCOc2c(cnn2C)-c2nccc(n2)Nc2cc3c(cn2)c(-c2ccc(CN4CC[C@H](N(C)C)C4)n2C)nn31 [(187)]"
meas_value = "< 10 nM"

[[record]]
compound = "C[C@H]1CCOc2c(cnn2C)-c2nccc(n2)Nc2cc3c(cn2)c(-c2cccc(CCN4CCOCC4)c2)nn31 [(163)]"
meas_value = "10 to 100 nM"

[[record]]
compound = "C[C@H]1CCOc2c(cnn2C)-c2nccc(n2)Nc2cc3c(cn2)c(-c2ccc(CN4CCOCC4)o2)nn31 [(164)]"
meas_value = "10 to 100 nM"

[[record]]
compound = "C[C@H]1CCOc2c(cnn2C)-c2nccc(n2)Nc2cc3c(cn2)c(-c2cc(F)cc(OCCN(C)C)c2)nn31 [(129)]"
meas_value = "10 to 100 nM"


// moving on: another record for GI50
Q) For the compound CC(C)n1ncc2c1OCCCC(C)n1nc(N3CCC3)c3cnc(cc31)Nc1ccnc-2n1 (stereo not shown) [(74)] , what GI50 is on record?
A) 100 to 1000 nM
